Entries and their measured IC50 follow.
Tested on: BT474 [human breast carcinoma, overexpressing HER2 (ErbB2)]
Assay: In vitro tumor cell proliferation assay (Cell Titer-Glo luminescent cell viability), BT474 cells
Assay type: cell-based
Conditions: BT-474, 72 h, 72 hours of drug exposure, Cell Titer-Glo readout, read-out: IC50, anti-proliferative activity in BT474 cells
From the text: The utility of the compounds of the present invention can be illustrated, for example, by their activity in vitro in the in vitro tumor cell proliferation assay described below. The link between activity in tumor cell proliferation assays in vitro and anti-tumor activity in the clinical setting has been very well established in the art. The following assay is one of the methods by which compound activity relating to treatment of the disorders identified herein can be determined. […]

// below: answered compounds
| Compound | IC50 |
| --- | --- |
| O=S1(=O)CCN(CCc2ccc3c(c2)sc2ncnc(Nc4ccc(OCc5cccc(F)c5)c(Cl)c4)c23)CC1 [Example 18] | ≤ 500 nM |
| CN(C)CCNC(=O)Cc1ccc2c(c1)sc1ncnc(Nc3ccc4c(cnn4Cc4cccc(F)c4)c3)c12 [Example 126] | ≤ 500 nM |

Read the next record carefully.
INPUT: Query (compound): CCN1CCN(C(=O)[C@H](O)[C@@H](O)c2ccc3c(c2)sc2ncnc(Nc4ccc(OCc5cccc(F)c5)c(Cl)c4)c23)CC1 [Example 57] ; field requested: IC50
OUTPUT: ≤ 5000 nM

---

test system: BT474 [human breast carcinoma, overexpressing HER2 (ErbB2)]; test: In vitro tumor cell proliferation assay (Cell Titer-Glo luminescent cell viability), BT474 cells; type: cell-based; details: BT-474, 72 h, 72 hours of drug exposure, Cell Titer-Glo readout, read-out: IC50, anti-proliferative activity in BT474 cells
Counter-ions that a name gives are not always drawn.
Entries and their measured IC50 follow.

| Compound | Target | IC50 |
| --- | --- | --- |
| COCCNCCc1ccc2c(c1)sc1ncnc(Nc3ccc(OCc4ccccn4)c(Cl)c3)c12 [Example 86, trifluoroacetate] | BT474 [human breast carcinoma, overexpressing HER2 (ErbB2)] | ≤ 500 nM |
| O=C(Cc1ccc2c(c1)sc1ncnc(Nc3ccc(OCc4cccc(F)c4)c(Cl)c3)c12)N1CCOCC1 | BT474 [human breast carcinoma, overexpressing HER2 (ErbB2)] | ≤ 500 nM |
| OCC(CO)c1ccc2c(c1)sc1ncnc(Nc3ccc(OCc4cccc(F)c4)c(Cl)c3)c12 | BT474 [human breast carcinoma, overexpressing HER2 (ErbB2)] | ≤ 500 nM |

Read the next record carefully.
INPUT: Query (compound): CCOC(=O)Cc1ccc2c(c1)sc1ncnc(Nc3ccc(OCc4cccc(F)c4)c(Cl)c3)c12 ; field requested: IC50
OUTPUT: ≤ 5000 nM

---

tested on: BT474 [human breast carcinoma, overexpressing HER2 (ErbB2)]; test: In vitro tumor cell proliferation assay (Cell Titer-Glo luminescent cell viability), BT474 cells; type: cell-based; conditions: BT-474, 72 h, 72 hours of drug exposure, Cell Titer-Glo readout, read-out: IC50, anti-proliferative activity in BT474 cells
pIC50: −log10 of the molar value.
Entries and their measured pIC50 follow.

// below: answered compounds
| Mol | Target | Readout label | Endpoint result |
| --- | --- | --- | --- |
| O=C(Cc1ccc2c(c1)sc1ncnc(Nc3ccc(OCc4ccccn4)c(Cl)c3)c12)NCCN1CCOCC1 | BT474 [human breast carcinoma, overexpressing HER2 (ErbB2)] | pIC50 | ≥ 6.30 |
| O=C(Cc1ccc2c(c1)sc1ncnc(Nc3ccc(OCc4ccccn4)c(Cl)c3)c12)NCCO | BT474 [human breast carcinoma, overexpressing HER2 (ErbB2)] | pIC50 | ≥ 5.30 |

Read the next record carefully.
INPUT: Query (compound): COCCN1CCN(CCc2ccc3c(c2)sc2ncnc(Nc4ccc(OCc5cccc(F)c5)c(Cl)c4)c23)CC1 ; field requested: pIC50
OUTPUT: ≥ 6.30

// provenance: patent US7750017B2
